# system-tested: NPM/ALK (Nucleophosmin/ALK tyrosine kinase receptor) (Homo sapiens, UniProt P06748+Q9UM73, L256T)
# Sequence (P06748 whole entry, stated change not applied): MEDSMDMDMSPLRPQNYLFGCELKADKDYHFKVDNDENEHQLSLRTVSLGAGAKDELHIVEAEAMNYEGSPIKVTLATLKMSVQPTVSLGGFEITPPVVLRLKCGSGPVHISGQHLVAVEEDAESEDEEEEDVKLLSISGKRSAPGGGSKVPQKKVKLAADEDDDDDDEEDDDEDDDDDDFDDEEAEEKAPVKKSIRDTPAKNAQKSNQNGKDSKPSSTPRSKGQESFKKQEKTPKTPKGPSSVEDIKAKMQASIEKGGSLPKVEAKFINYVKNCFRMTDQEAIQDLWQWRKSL
# Sequence (Q9UM73 19-1620 L256T limits assumed, stated change not applied): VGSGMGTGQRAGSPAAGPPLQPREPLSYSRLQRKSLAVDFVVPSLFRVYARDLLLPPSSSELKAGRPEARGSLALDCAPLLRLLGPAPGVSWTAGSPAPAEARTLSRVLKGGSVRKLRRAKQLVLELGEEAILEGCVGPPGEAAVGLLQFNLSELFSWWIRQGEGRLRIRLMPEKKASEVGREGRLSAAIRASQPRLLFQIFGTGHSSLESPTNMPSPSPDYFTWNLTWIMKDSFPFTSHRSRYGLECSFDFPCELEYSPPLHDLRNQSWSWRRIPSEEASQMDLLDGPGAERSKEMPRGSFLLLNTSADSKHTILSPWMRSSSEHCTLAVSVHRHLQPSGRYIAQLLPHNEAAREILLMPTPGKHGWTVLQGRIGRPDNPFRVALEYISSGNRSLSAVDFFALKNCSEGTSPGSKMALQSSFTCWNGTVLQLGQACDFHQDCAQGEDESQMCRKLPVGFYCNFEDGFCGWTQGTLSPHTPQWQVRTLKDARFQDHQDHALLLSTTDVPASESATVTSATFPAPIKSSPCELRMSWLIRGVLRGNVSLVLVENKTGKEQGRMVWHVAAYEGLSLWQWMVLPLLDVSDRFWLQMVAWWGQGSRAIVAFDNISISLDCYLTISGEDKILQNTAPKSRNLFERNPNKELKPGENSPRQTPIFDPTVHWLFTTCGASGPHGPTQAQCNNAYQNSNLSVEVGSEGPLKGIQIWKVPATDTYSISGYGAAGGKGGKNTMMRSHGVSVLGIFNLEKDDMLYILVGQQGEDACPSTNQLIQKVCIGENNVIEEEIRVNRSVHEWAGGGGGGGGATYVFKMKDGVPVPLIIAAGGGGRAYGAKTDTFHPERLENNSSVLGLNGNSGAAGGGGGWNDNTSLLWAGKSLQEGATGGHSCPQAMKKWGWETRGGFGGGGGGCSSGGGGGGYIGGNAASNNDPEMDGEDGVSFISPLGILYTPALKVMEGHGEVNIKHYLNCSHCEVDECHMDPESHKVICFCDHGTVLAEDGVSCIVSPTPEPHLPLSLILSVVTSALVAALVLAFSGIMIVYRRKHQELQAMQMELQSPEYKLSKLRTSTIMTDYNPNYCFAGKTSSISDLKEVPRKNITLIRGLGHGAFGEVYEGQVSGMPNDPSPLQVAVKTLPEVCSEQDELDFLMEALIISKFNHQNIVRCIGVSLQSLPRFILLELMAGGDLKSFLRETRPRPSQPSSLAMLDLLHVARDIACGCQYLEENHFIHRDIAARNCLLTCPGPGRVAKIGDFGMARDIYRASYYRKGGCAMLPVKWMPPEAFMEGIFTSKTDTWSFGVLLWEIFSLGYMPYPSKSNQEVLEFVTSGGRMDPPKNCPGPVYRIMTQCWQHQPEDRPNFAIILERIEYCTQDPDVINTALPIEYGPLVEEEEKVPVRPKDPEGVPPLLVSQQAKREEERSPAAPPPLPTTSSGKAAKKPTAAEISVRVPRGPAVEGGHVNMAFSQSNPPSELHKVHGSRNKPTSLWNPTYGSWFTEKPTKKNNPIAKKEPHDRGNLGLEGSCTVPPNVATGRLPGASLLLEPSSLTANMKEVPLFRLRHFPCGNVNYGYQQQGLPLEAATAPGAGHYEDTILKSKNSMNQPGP
# measurement-notes: Inhibition of NPM/ALK L256T mutant autophosphorylation activity in BaF3 cells by antiphosphotyrosine immunoblotting assay
# Format: cell-based
measured-metric: pIC50
// pIC50 is dimensionless: -log10 of concentration (M)

So, COc1cc(Nc2c(C#N)cnc3cc(OCCCN4CCN(C)CC4)c(OC)cc23)c(Cl)cc1Cl [BOSUTINIB] ? Its pIC50 was 6.70

---

# IC50 per entry
# Tested on: BaF3
# measurement-notes: Antiproliferative activity against murine BaF3 cells expressing NPM/ALK L256T mutant by [3H]thymidine uptake assay
# Assay type: functional, cell-based
# condition: Mus musculus

Example entries and their recorded answers appear below.
[[record]]
structure = "COc1cc(Nc2c(C#N)cnc3cc(OCCCN4CCN(C)CC4)c(OC)cc23)c(Cl)cc1Cl"
system_tested = "BaF3"
result_value = "200 nM"

[[record]]
structure = "CSc1cccc(Nc2ncc3cc(-c4c(Cl)cccc4Cl)c(=O)n(C)c3n2)c1"
system_tested = "BaF3"
result_value = "1800 nM"


Next compound, please.
So, Cc1ccc(NC(=O)c2ccc(CN3CCN(C)CC3)cc2)cc1Nc1nccc(-c2cccnc2)n1 ? Its IC50 was 9100 nM

---

# system-tested: NPM/ALK (Nucleophosmin/ALK tyrosine kinase receptor) (Homo sapiens, UniProt P06748+Q9UM73, L256T)
# measurement-notes: Inhibition of NPM/ALK L256T mutant kinase activity in BaF3 cells by radioenzymatic assay
# Format: cell-based
measured-metric: IC50 (nM)
A number alone suffices; assume nM.

So, COc1cc(Nc2c(C#N)cnc3cc(OCCCN4CCN(C)CC4)c(OC)cc23)c(Cl)cc1Cl ? Its IC50 was 150

---

# system-tested: NPM/ALK (Nucleophosmin/ALK tyrosine kinase receptor) (Homo sapiens, UniProt Q9UM73)
# Sequence (Q9UM73 whole entry): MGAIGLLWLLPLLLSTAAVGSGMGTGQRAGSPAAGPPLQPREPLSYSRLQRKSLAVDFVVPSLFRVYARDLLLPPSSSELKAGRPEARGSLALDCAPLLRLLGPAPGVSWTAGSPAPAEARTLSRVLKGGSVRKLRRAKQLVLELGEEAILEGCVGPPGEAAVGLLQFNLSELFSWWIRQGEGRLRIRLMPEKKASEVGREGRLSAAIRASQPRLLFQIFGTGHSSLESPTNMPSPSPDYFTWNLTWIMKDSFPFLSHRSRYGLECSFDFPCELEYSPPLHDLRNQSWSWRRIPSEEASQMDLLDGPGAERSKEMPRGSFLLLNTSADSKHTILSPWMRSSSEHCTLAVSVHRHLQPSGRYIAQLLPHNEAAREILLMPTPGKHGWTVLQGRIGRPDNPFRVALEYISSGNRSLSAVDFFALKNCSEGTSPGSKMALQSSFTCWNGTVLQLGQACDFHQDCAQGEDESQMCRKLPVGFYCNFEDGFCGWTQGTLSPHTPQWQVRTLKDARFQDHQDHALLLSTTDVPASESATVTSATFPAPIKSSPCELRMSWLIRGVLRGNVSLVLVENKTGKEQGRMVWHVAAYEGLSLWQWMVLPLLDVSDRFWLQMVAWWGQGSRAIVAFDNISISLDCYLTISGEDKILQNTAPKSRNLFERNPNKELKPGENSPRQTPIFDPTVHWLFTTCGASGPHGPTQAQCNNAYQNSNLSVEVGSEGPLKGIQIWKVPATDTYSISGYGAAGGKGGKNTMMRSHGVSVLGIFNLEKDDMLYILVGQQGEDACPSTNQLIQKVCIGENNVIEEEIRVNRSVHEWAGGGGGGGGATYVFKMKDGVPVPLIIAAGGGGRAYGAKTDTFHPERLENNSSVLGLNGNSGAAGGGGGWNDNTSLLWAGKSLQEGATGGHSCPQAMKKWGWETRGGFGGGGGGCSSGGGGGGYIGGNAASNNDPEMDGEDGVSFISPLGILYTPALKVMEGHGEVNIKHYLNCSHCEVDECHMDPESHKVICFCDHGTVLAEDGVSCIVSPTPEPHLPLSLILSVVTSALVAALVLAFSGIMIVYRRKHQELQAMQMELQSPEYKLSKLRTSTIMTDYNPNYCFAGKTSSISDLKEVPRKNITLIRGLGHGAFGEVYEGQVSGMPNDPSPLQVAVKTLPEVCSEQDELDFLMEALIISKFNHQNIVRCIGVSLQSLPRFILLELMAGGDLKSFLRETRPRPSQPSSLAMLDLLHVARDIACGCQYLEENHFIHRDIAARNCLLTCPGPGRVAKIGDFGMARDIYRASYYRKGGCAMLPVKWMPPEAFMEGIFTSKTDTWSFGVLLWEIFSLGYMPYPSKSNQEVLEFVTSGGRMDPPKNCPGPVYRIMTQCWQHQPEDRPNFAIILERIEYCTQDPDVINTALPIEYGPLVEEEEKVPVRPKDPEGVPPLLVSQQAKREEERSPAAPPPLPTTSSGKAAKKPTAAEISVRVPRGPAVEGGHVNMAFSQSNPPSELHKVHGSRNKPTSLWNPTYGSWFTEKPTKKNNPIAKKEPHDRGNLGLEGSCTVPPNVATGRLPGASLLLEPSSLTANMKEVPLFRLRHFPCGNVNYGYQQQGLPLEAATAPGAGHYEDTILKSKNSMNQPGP
# Sequence (P06748 whole entry, further chain): as the sequence (P06748 whole entry, stated change not applied) above
# measurement-notes: Inhibition of wild type NPM/ALK autophosphorylation activity in BaF3 cells by antiphosphotyrosine immunoblotting assay
# Assay type: cell-based
measured-metric: IC50

So, COc1cc(Nc2c(C#N)cnc3cc(OCCCN4CCN(C)CC4)c(OC)cc23)c(Cl)cc1Cl ? Its IC50 was > 20 µM
